Hey, just so you know, these numbers are from PubChem BioAssay (NCI).

- Tested on: MALME-3M melanoma
- Test description: NCI-60 one-dose screen, 48 h
- Assay setup: 10 µM unless noted
About 83,000 compounds went through this panel and 20% of them were active in at least one assay; those are over-represented in the sample as a whole. Calls of active or inactive are those of the source. The calls were made as follows: active = growth percent below 10; inactive = the rest.
Classes used: T for active, F for inactive

> print(dat)
                                    compound  assigned.category
 1             COc1ccc(-c2conc2-c2ccccc2)cc1                  F
 2  NS(=O)(=O)c1ccc(-n2nc(-c3ccc(Cl)cc3)c3ccccc3c2=O)cc1                  F
 3  COc1c(B(O)O)cc(C)cc1-c1nc2ccc3[nH]ncc3c2c2c1CCCC2                  F
 4     CCOC(=O)Nc1ccc(C(=O)/C=C/c2ccccc2)cc1                  F
 5  COc1ccc2sc3c(NCCCN(C)C)nc4ccccc4c3c(=O)c2c1                  F
 6  COc1ccc(C2C(N)=NNC2c2cccc(O)c2)cc1 (stereo not drawn)                  F
 7  NC1CCN(c2nc(Nc3cccc(C(F)(F)F)c3)c3c(=O)[nH]ccc3n2)CC1                  T
 8           Oc1ccc(Cl)cc1Cc1cc(Cl)cc(Cl)c1O                  T
 9  COc1cccc(-c2nc(-c3ccc(NC(=O)OC(C)C)cc3)[nH]c2-c2ccnc(Br)c2)c1                  F
10      Cc1ccc(/C=C2\Oc3ccc(O)c(O)c3C2=O)cc1                  F
11       O=[N+]([O-])c1ccccc1NCSc1ccc(Cl)cc1                  F
12      O=C(CSc1nc2ccccc2[nH]1)Nc1cccc(Cl)c1                  F
13  C=C1C(=O)O[C@H]2[C@H]1CC/C(COC(=O)CCC(=O)NCCOCCOCC(=O)Nc1ccc(OC)c(C(N)=O)c1O)=C\CC[C@@]1(C)O[C@@H]21                  F
14      COc1cccc(Cc2nn3cc(-c4ccccc4)nc3s2)c1                  F
15          c1ccc(Nc2cc(-c3cccnc3)[nH]n2)cc1                  F
16  CC(C)n1cnc2c(Nc3cccc(Cl)c3)nc(N[C@H]3CCCC[C@@H]3N)nc21                  F
17  N/C(=N\c1nc2ccccc2s1)NC(=O)Nc1cccc2ccccc12                  F
18  COc1ccc(-c2nnc(COc3ccc(Cl)cc3Cl)o2)cc1OC                  T

====

- System: NCI-H522 lung
- Test description: NCI-60 one-dose screen, 48 h (100 = growth as untreated, 0 = no growth, -100 = all killed)
- Assay setup: 10 µM unless noted
The panel holds about 83,000 compounds, 20% with a hit somewhere; the sample as a whole holds those more often.
Quantity kind: growth (%)

> print(dat)
                                    molecule  system.under.test  quantity.kind  unit.string  recorded.result
 1  COc1cc2cc(Oc3ccc(NC(=O)Nc4ccc(Cl)c(C(F)(F)F)c4)cc3)c(C)nc2cc1OCCN1CCOCC1      NCI-H522 lung         growth            %             20.7
 2  Oc1ccc(-c2nc3ccc4[nH]ncc4c3c3c2CCCC3)c2cccnc12      NCI-H522 lung         growth            %               15
 3  c1ccc(OCc2nnc(-c3ccc(Oc4ccccc4)cc3)o2)cc1      NCI-H522 lung         growth            %             86.8
 4  COc1cc(C(=O)c2cnc(-c3c[nH]c4cccc(C)c34)[nH]2)cc(OC)c1OC      NCI-H522 lung         growth            %            -4.91
 5  CC1=C(C)C(=O)C(Nc2cccc(C(=O)OC(C)(C)C)c2)=C(Br)C1=O      NCI-H522 lung         growth            %             67.4
 6  CCC(=O)Nc1ccc(-c2nc(-c3cccc(OC)c3)c(-c3ccnc(Br)c3)[nH]2)cc1      NCI-H522 lung         growth            %             56.9
 7  COc1cc(/C=C/C(=O)/C=C/c2cc(OC)c3c(c2OC)OCO3)c(OC)c2c1OCO2      NCI-H522 lung         growth            %            -15.5
 8  Cc1cc(O)c(C2=NN(c3ccc(S(N)(=O)=O)cc3)C(c3ccccc3O)C2)cc1Cl (stereo not given)      NCI-H522 lung         growth            %            -56.8
 9  CCN(CC)c1ccc(C2=NN(C(C)=O)C(c3cc(OC)c(OC)c(OC)c3)C2)cc1 (stereo not given)      NCI-H522 lung         growth            %            -46.3
10     N#Cc1c(-c2ccc(Cl)cc2)nc(NCCO)[nH]c1=O      NCI-H522 lung         growth            %             95.9
11  COc1cc(Nc2cn[nH]c2-c2ccc(Cl)cc2)cc(OC)c1OC      NCI-H522 lung         growth            %             21.7
12       O=C(/C=C/c1sc(Cl)nc1Cl)c1ccc(Br)cc1      NCI-H522 lung         growth            %             86.6
13  Nc1nn(C(=O)Nc2ccc(Cc3ccccc3)cc2)c2ccc(Cl)cc12      NCI-H522 lung         growth            %             73.1
14       CCOC(=O)CCN(C(=O)Nc1ccccc1)C1CCCCC1      NCI-H522 lung         growth            %             99.2
15  CCCCNc1nc(NN2C(=O)c3cccc4cccc(c34)C2=O)nc(-n2cnc3ccccc32)n1      NCI-H522 lung         growth            %             89.5
16       CCOC(=O)c1sc2ncc(-c3ccc(C)cc3)n2c1C      NCI-H522 lung         growth            %             86.2
17  C[C@]12CC[C@@H]3c4cc(OC(F)F)c(OS(N)(=O)=O)cc4CC[C@H]3[C@@H]1CC[C@@H]2O      NCI-H522 lung         growth            %             19.8
18  NS(=O)(=O)c1ccc(-n2nc(-c3ccc(Cl)cc3)c3ccccc3c2=O)cc1      NCI-H522 lung         growth            %             87.4
19  CCCCCCn1c(-c2ccc(C(=O)O/N=C(\N)c3ccc4c(c3)OCO4)cc2)nc(-c2ccccc2)c1-c1ccccc1      NCI-H522 lung         growth            %            -58.9
20     COc1ccc(-c2nc(NCCO)[nH]c(=O)c2C#N)cc1      NCI-H522 lung         growth            %             88.5

====

Listed compounds paired with reported growth
- System: SF-539 CNS
- Test description: NCI-60 one-dose screen, 48 h (100 = growth as untreated, 0 = no growth, -100 = all killed)
- Assay setup: 10 µM unless noted
- Protocol: Cells are grown in 96 well plates and exposed to the test compound for 48 hours. Compounds are tested at a single concentration, which is 10^-5 M for most compounds. The reported endpoint is percent growth (GI% or GIPRCNT), where numbers from 0 - 100% represent growth inhibition, and numbers from -100% - 0 represent cell death. For example, a value of 40 represents 60% growth inhibition. A value of 0 means no net growth occurred over the course of the experiment. […]
This is part of a sample that, as a whole, favours compounds with a hit. Of some 83,000 tested, about 20% had one in any assay.
Quantity kind: growth (%)

> print(dat)
                               smiles.entry  quantity.kind  recorded.result
1  CCOC(=O)/C=C1\S/C(=N\Nc2ccc([N+](=O)[O-])cc2[N+](=O)[O-])N(Cc2ccccc2)C1=O         growth             99.6
2  C/C(=C(/c1ccccc1)c1ccc(N2C(=O)c3cccc4c(N5CCN(C)CC5)ccc(c34)C2=O)cc1)c1ccccc1         growth             72.3
3  COc1ccc(/C=C/c2c(C(=O)/C=C/c3ccc(C(F)(F)F)cc3)c(C)nc3ccccc23)cc1         growth            -76.2
4       COc1ccc(CN2c3ccccc3CCc3ccccc32)cc1F         growth            -16.2
5  Cc1c(C(=O)NCCN2CCOCC2)cn2ncnc(Oc3ccc(NC(=O)Nc4ccc(Cl)c(C(F)(F)F)c4)cc3)c12         growth            -2.93
